This section presents compounds with their documented kinact values.
# Target under test: Amine oxidase [flavin-containing] B (Bos taurus)
# Sequence (P56560 whole entry): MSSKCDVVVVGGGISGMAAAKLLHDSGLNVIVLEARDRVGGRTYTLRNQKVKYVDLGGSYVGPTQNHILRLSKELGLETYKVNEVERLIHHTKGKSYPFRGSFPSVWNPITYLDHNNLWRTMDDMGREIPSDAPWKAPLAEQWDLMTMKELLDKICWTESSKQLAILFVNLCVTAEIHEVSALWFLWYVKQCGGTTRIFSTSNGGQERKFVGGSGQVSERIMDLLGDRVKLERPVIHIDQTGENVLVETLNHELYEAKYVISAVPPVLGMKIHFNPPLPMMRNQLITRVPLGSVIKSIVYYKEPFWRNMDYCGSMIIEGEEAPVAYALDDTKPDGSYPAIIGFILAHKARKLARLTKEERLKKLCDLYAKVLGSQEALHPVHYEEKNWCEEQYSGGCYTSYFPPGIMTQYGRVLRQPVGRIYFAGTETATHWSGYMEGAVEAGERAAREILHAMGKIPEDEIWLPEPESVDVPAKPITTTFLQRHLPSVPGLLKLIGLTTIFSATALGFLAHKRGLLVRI
# Assay details: Inactivation kinetic constant Monoamine oxidase-B from Bovine liver
# Condition notes: cattle
Outcome measure: kinact (s⁻¹)

>>> value_reported("CN(C)CCC(=O)c1ccccc1")
0.0288
>>> value_reported("CN(C)CCCCc1ccccc1")
"4.83e-05"
>>> value_reported("CN(C)CCc1ccccc1")
0.128
>>> value_reported("CCCCCN(C)C")
0.000267
>>> value_reported("CCCNCCc1ccccc1")
0.0767
>>> value_reported("CN(C)CCCc1ccccc1")
0.00717

----------
# Target under test: Amine oxidase [flavin-containing] B (Bos taurus)
Ki strictly less than 4 mM = Condition met. Otherwise Condition not met.

>>> class_name("CN(C)CCc1ccccc1")
"Condition not met"
>>> class_name("CN(C)CCC(=O)c1ccccc1")
"Condition met"
>>> class_name("CN(C)CCCc1ccccc1")
"Condition met"
>>> class_name("CN(C)CCCCc1ccccc1")
"Condition not met"
>>> class_name("CCCCCN(C)C")
"Condition met"
